molecular target: GLP-1 receptor (Homo sapiens, UniProt P43220); assay: FLIPR calcium flux assay, agonist format, GLP-1; format: cell-based; details: Emax of reference ligand Glucagon as 100%
Sequence (P43220 24-463): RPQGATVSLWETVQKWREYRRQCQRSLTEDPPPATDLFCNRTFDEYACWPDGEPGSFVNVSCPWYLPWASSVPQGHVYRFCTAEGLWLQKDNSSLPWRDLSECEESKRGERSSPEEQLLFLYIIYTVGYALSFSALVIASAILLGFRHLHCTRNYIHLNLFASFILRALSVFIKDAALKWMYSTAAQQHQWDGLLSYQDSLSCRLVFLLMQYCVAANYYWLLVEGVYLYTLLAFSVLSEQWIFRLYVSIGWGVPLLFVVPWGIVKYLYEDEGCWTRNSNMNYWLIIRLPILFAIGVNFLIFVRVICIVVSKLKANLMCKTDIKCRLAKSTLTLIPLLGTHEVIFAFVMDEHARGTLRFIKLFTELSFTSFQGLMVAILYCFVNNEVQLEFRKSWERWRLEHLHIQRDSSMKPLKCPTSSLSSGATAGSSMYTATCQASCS
Quick reference for activation at 1 µM among some compounds
Observation type: activation at 1 µM (%)

>>> value_observed("CC(C)Cc1cccc(C(C)C(=O)N(C)CC[C@H](Oc2ccc(C(F)(F)F)cc2)c2ccccc2)c1 (some centres unmarked) [Compound 35b]")
3.8
>>> value_observed("CC(C(=O)N(C)CC[C@H](Oc1ccc(C(F)(F)F)cc1)c1ccccc1)c1ccc(C(F)(F)F)cc1 (some centres unmarked) [Compound 33b]")
17.6
>>> value_observed("CC(C)Cc1ccc(C2(C(=O)N(C)CC[C@H](Oc3ccc(C(F)(F)F)cc3)c3ccccc3)CC2)cc1 [Compound 36b]")
0.5
>>> value_observed("C[C@H](C(=O)N(C)CC[C@@H](Oc1ccc(C(F)(F)F)cc1)c1ccccc1)c1ccc(C(F)(F)F)cc1 [Compound 33d]")
0.6
>>> value_observed("CC(C)Cc1ccc(CC(=O)N(C)CC[C@@H](Oc2ccc(C(F)(F)F)cc2)c2ccccc2)cc1 [Compound 32a]")
2.9
>>> value_observed("O=C(c1ccccc1)c1ccc2n1CCC2C(=O)NCC[C@@H](Oc1ccc(C(F)(F)F)cc1)c1ccccc1 (some centres unmarked) [Compound 5a]")
0.4
>>> value_observed("C[C@@H](C(=O)N(C)CC[C@@H](Oc1ccc(C(F)(F)F)cc1)c1ccccc1)c1ccc(C(F)(F)F)cc1 [Compound 33c]")
0.8
>>> value_observed("CC(C)Cc1ccc([C@H](C)C(=O)N(C)CC[C@@H](Oc2ccc(C(F)(F)F)cc2)c2ccccc2)cc1 [Compound 12a]")
7.6
>>> value_observed("COc1ccc2c(c1)c(CC(=O)NCC[C@@H](Oc1ccc(C(F)(F)F)cc1)c1ccccc1)c(C)n2C(=O)c1ccc(Cl)cc1 [Compound 7a]")
4.2
>>> value_observed("CC(C(=O)N(C)CC[C@@H](Oc1ccc(C(F)(F)F)cc1)c1ccccc1)c1ccc(CN(C)C)cc1 (some centres unmarked) [Compound 25a]")
-2.7
>>> value_observed("CC(C)Cc1ccc([C@H](C)C(=O)N(C)CC[C@H](Oc2ccc(C(F)(F)F)cc2)c2ccccc2)cc1 [Compound 12b]")
24.5
>>> value_observed("CN(CCC(Oc1ccc(C(F)(F)F)cc1)c1ccccc1)C(=O)C1CCn2c(C(=O)c3ccccc3)ccc21 (centres unmarked) [Compound 13]")
0.8
>>> value_observed("C[C@H](C(=O)N(C)CC[C@H](Oc1ccc(C(F)(F)F)cc1)c1ccccc1)c1ccc(C(F)(F)F)cc1 [Compound 33f]")
-3.5
>>> value_observed("COc1ccc2c(c1)c(CC(=O)N(C)CCC(Oc1ccc(C(F)(F)F)cc1)c1ccccc1)c(C)n2C(=O)c1ccc(Cl)cc1 (centres unmarked) [Compound 15]")
-0.2
